# ASSAY COMMENT: chemical genetic growth profiling, strain panel (AID 1159580);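 also: tested at 20 µM; growth read once vehicle control cultures reached saturation at 30 °C; 1 = growth at the plate median or of vehicle wells; lower values mean less growth of the strain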
# TEST CONDITIONS: S. cerevisiae deletion strains, growth OD, locus YDR159W, strain sac3, hits give low values
Among all 5,500 compounds or so, about 2,000 (36%) were called active. Another 18% or so got no clear call; they are omitted. Some of the results follow.
normalized growth by entry:
API doc: respond with a numeric literal and nothing else, no unit.

// below: answered compounds
C=CC(C1=CC(=O)C(OC)=CC1=O)c1ccccc1 (configuration not stated)	0.85
CC(=O)O[C@H]1C[C@@H](OC(C)=O)C(C)(C)C2C[C@@H](OC(C)=O)[C@@]3(C)C4=CC(=O)O[C@@H](c5ccoc5)[C@]4(C)CCC3[C@]21C (some centres not stated)	0.968
Oc1c(Cl)cc(Cl)c2cccnc12	0.0885

normalized growth measured on C=CC(C1=CC(=O)C(OC)=CC1=O)c1ccc(OC)cc1 (configuration not stated) = 0.813

normalized growth measured on `Oc1c(I)cc(Cl)c2cccnc12` = 0.115

normalized growth measured on `Oc1ccc(Cl)c2cccnc12` = 0.284

normalized growth measured on `NC[C@H](O)c1ccc(O)c(O)c1` = 1.01

normalized growth measured on `O=C(NC(=O)c1c(F)cccc1F)Nc1ccc(Cl)cc1` = 1.04

normalized growth measured on `CNC[C@@H](O)c1ccc(O)c(O)c1` = 1

normalized growth measured on CC(C)NCC(O)c1ccc(O)c(O)c1 (configuration not stated) = 1.01

normalized growth measured on `Nc1ccc(S(=O)(=O)Nc2ccc(Cl)nn2)cc1` = 1.02

normalized growth measured on `Cc1ccc2c(Cl)cc(Cl)c(O)c2n1` = 1.02
